I'd be grateful if you could share measured EC50 for these entries.
test system: HCV; test: Anti-HCV activity in Huh-Luc/neo cell line, luciferase activity after 3-day treatment; assay type: cell-based, Hepatitis C virus; conditions: Hepatitis C virus, 72 h; Huh-Luc/neo cells, 3 days; given as a bound only; read-out: Antiviral Activities (EC50, μM) HCV

## Task Give EC50 for CC(=O)NN1C(=O)c2cc3ccc4c(c3c(-c3ccc5c(c3)OCO5)c2C1=O)OCO4 [Compound 25]
## Result > 10 µM

## Task Give EC50 for O=C1OCc2c1cc1c(Cl)cc3c(c1c2-c1ccc2c(c1)OCO2)OCO3 [Compound 37]
## Result > 10 µM

## Task Give EC50 for O=C1OCc2c1c(-c1ccc3c(c1)OCO3)c1c3c(ccc1c2O)OCO3 [Compound 34]
## Result > 10 µM

Value source: patent US7754718B2
